- Subject of test: DRB1*0401 (Homo sapiens, UniProt P01903+P01911, A100K/A169T/F76Y/I96L/K127E/L162R/M171V/N62H/P40V/Q125Y/R42H/S133A/S149N/S66Y/V115G/V209L/W38E)
- Experiment description: biochemical
Endpoint: IC50 (nM)
Numeric answer only, unit nM assumed.

Query: Give reported IC50 value for CC[C@H](C)[C@H](NC(=O)[C@H](C)NC(=O)[C@H](CC(N)=O)NC(=O)[C@H](C)N)C(=O)N[C@@H](Cc1ccccc1)C(=O)N[C@@H](CCCCN)C(=O)N[C@@H](CC(C)C)C(=O)N[C@H](C(=O)N[C@@H](Cc1ccc(O)cc1)C(=O)N[C@@H](CCC(N)=O)C(=O)N[C@@H](CC(N)=O)C(=O)N[C@@H](CCCCN)C(=O)N[C@H](C(=O)N[C@H](C(=O)N[C@@H](CCCCN)C(=O)N[C@H](C(=O)N[C@@H](CCC(N)=O)C(=O)O)C(C)C)C(C)C)C(C)C)[C@@H](C)O
Response: 390

Query: Give reported IC50 value for CC[C@H](C)[C@H](NC(=O)[C@H](C)NC(=O)[C@H](CC(N)=O)NC(=O)[C@H](CO)NC(=O)[C@H](C)NC(=O)[C@H](CC(C)C)NC(=O)[C@H](CCCNC(=N)N)NC(=O)[C@H](CC(C)C)NC(=O)[C@H](CC(=O)O)NC(=O)[C@H](CCCNC(=N)N)NC(=O)[C@H](CCCNC(=N)N)NC(=O)[C@H](Cc1c[nH]cn1)NC(=O)[C@H](Cc1ccccc1)NC(=O)[C@H](Cc1ccc(O)cc1)NC(=O)[C@@H](N)CCSC)C(=O)O
Response: 4.7

---

- Subject of test: DRB1*0301 (Homo sapiens, UniProt P01903+P01911, A100K/A102G/A103R/A169T/F55Y/I96L/K41T/L162R/M171V/P40S/Q125H/Q178H/Q39Y/R42S/S66N/T106N/T262R/W38E/Y61H)
- Sequence (P01903 26-254, other chains not shown): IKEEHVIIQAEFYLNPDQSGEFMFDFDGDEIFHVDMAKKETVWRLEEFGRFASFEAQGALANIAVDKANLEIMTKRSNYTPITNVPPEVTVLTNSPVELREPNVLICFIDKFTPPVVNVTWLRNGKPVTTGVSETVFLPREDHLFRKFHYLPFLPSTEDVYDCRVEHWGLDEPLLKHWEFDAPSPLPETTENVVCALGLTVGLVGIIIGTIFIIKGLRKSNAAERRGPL
- Experiment description: biochemical
Hi there, I'd appreciate the recorded pIC50 for every entry that follows.
Notebook: values listed as pIC50 are -log10 of the concentration (mol/L).

Query: Give reported pIC50 value for CC[C@H](C)[C@H](NC(=O)[C@H](CCC(=O)O)NC(=O)CNC(=O)[C@@H](NC(=O)[C@@H](NC(=O)[C@@H](NC(=O)[C@H](CCC(N)=O)NC(=O)[C@H](Cc1ccccc1)NC(=O)[C@@H](NC(=O)CNC(=O)[C@@H]1CCCN1C(=O)[C@H](CCSC)NC(=O)[C@@H](NC(=O)[C@H](CCC(N)=O)NC(=O)[C@@H](N)Cc1ccccc1)[C@@H](C)O)[C@@H](C)O)[C@@H](C)O)[C@@H](C)O)[C@@H](C)O)C(=O)O [NS3 109-123]
Response: 4.78

Query: Give reported pIC50 value for C[C@@H](O)[C@H](NC(=O)[C@H](CO)NC(=O)[C@H](CO)NC(=O)[C@H](Cc1c[nH]cn1)NC(=O)[C@H](CCC(=O)O)NC(=O)[C@H](CCC(=O)O)NC(=O)[C@@H](N)CCCCN)C(=O)N[C@@H](Cc1c[nH]c2ccccc12)C(=O)N[C@@H](Cc1c[nH]cn1)C(=O)N[C@@H](Cc1ccc(O)cc1)C(=O)N[C@@H](CC(=O)O)C(=O)N[C@@H](CC(=O)O)C(=O)N[C@@H](CCC(=O)O)C(=O)N[C@@H](CC(N)=O)C(=O)N1CCC[C@H]1C(=O)N[C@@H](Cc1ccc(O)cc1)C(=O)N[C@@H](CCCCN)C(=O)O [NS5 284-300]
Response: 8.03

Query: Give reported pIC50 value for CC[C@H](C)[C@H](NC(=O)[C@H](Cc1c[nH]c2ccccc12)NC(=O)[C@H](Cc1ccc(O)cc1)NC(=O)CNC(=O)[C@H](CCSC)NC(=O)[C@H](CC(=O)O)NC(=O)[C@H](C)NC(=O)[C@H](Cc1c[nH]cn1)NC(=O)[C@@H](NC(=O)[C@H](C)N)C(C)C)C(=O)N[C@@H](CCC(=O)O)C(=O)N[C@@H](CO)C(=O)N[C@@H](CCC(N)=O)C(=O)N[C@@H](CCCCN)C(=O)N[C@@H](CC(N)=O)C(=O)O [NS1 193-207]
Response: 5.59

Query: Give reported pIC50 value for CSCC[C@H](NC(=O)[C@@H](NC(=O)[C@H](CCC(N)=O)NC(=O)[C@H](Cc1ccccc1)NC(=O)[C@H](CC(N)=O)NC(=O)[C@H](CCCCN)NC(=O)[C@@H]1CCCN1C(=O)[C@@H](N)CC(N)=O)[C@@H](C)O)C(=O)N1CCC[C@H]1C(=O)NCC(=O)N[C@H](C(=O)N[C@@H](Cc1ccccc1)C(=O)N[C@@H](CCC(N)=O)C(=O)N[C@H](C(=O)N[C@H](C(=O)O)[C@@H](C)O)[C@@H](C)O)[C@@H](C)O [NS3 105-119]
Response: 4.93

Query: Give reported pIC50 value for CSCC[C@H](NC(=O)[C@@H](NC(=O)[C@H](Cc1ccccc1)NC(=O)[C@H](CCCNC(=N)N)NC(=O)[C@H](CC(N)=O)NC(=O)[C@H](CC(C)C)NC(=O)[C@H](CC(C)C)NC(=O)[C@H](CC(C)C)NC(=O)[C@H](CCCNC(=N)N)NC(=O)[C@H](CO)NC(=O)[C@@H](NC(=O)[C@@H](N)CCSC)C(C)C)[C@@H](C)O)C(=O)N[C@H](C(=O)N[C@@H](Cc1c[nH]cn1)C(=O)N[C@@H](CCCNC(=N)N)C(=O)N[C@@H](CCCNC(=N)N)C(=O)O)[C@@H](C)O [NS5 233-248]
Response: 6.49

These measurements were taken from paper PMC3794980.
